Origin of the recorded values: ChEMBL document CHEMBL1155226

tested on: Human immunodeficiency virus 1; test: Antiviral activity against HIV1 isolate 94UG103 replication in human PBMC assessed as inhibition of p24 production after 7 days by ELISA; conditions: Human immunodeficiency virus 1, isolate 94UG103, 168 h
Examples of molecules with documented pEC50 follow.
Entry type: numeric. Quantity: pEC50, the -log10 of concentration in molar units.

Some molecules with known pEC50 results, for comparison:
smiles_code=Cc1ccc(-c2ccc(/C=C3\SC(=S)N(CCc4ccccc4)C3=O)o2)cc1C(=O)O numeric_readout=7.15
smiles_code=O=C(O)c1cccc(-c2ccc(/C=C3\SC(=S)N(CCc4ccccc4)C3=O)o2)c1 numeric_readout=7.13

Here is the next item to consider.
// pEC50 value for O=C(O)c1cc(-c2ccc(/C=C3\SC(=S)N(CCc4ccccc4)C3=O)o2)ccc1Cl : 7.14
